# tested-system: Enteropeptidase (Homo sapiens) (UniProt P98073)
# Sequence (P98073 2-784 limits assumed): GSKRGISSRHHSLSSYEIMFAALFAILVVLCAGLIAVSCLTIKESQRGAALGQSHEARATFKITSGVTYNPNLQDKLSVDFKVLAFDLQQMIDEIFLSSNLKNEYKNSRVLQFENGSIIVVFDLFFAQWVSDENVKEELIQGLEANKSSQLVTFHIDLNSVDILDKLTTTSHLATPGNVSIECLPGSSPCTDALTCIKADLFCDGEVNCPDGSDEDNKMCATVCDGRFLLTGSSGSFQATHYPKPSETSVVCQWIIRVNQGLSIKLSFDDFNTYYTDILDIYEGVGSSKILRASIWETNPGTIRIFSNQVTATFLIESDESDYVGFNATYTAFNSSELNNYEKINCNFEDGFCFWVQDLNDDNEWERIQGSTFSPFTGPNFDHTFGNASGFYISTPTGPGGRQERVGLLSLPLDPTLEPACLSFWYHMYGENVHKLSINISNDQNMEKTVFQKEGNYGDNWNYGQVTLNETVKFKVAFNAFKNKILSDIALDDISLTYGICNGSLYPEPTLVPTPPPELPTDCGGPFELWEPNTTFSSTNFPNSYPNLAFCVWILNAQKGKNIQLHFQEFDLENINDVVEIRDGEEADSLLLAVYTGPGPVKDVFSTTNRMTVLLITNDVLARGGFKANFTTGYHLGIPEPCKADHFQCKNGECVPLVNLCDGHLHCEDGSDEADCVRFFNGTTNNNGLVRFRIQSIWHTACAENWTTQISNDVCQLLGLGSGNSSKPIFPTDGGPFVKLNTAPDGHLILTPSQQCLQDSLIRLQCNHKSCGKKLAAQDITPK
# Sequence (P98073 785-1019 limits assumed): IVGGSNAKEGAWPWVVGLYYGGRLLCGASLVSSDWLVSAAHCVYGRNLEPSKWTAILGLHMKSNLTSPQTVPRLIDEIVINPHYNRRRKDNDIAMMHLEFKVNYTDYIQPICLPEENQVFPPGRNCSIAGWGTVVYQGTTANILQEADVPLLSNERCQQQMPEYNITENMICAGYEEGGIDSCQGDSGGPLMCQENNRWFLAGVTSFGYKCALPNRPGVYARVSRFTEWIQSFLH
# test-summary: Inhibition of full length recombinant human EP expressed in CHO cells assessed as protease activity using […] as substrate at 0.1 uM by fluorescence assay relative to control
# Design: scale not given: the % may be the effect or the level left
observable: Activity
Please answer in the form of a number followed by its unit of measurement.

Past entries and their recorded results:
> print(dat)
                                    compound                             tested.system  observable  result
 1  N=C(N)Nc1ncc(C(=O)Oc2ccc(CC(=O)O)n3ncnc23)cn1  Enteropeptidase (Homo sapiens) (UniProt P98073)    Activity   92.1%
 2  N=C(N)Nc1ccc(C(=O)Oc2ccc(CC(=O)N[C@@H](CC(=O)O)C(=O)O)n3ccnc23)cc1  Enteropeptidase (Homo sapiens) (UniProt P98073)    Activity   81.2%
 3        C#CCOCCOCC#Cc1ccc(CC(=O)O)n2ncnc12  Enteropeptidase (Homo sapiens) (UniProt P98073)    Activity     63%
 4  O=C(O)Cc1ccc(OC(=O)c2ccc(NC3=NCCN3)cc2)c2ncnn12  Enteropeptidase (Homo sapiens) (UniProt P98073)    Activity  -0.28%
 5  Cc1cc(NC(=N)N)ccc1C(=O)Oc1ccc(CC(=O)O)n2ncnc12  Enteropeptidase (Homo sapiens) (UniProt P98073)    Activity   10.3%
 6  CNC(=N)Nc1ccc(C(=O)Oc2ccc(CC(=O)O)n3ncnc23)cc1  Enteropeptidase (Homo sapiens) (UniProt P98073)    Activity   15.3%
 7  COc1cc(C(=O)Oc2ccc(CC(=O)O)n3ncnc23)ccc1NC(=N)N  Enteropeptidase (Homo sapiens) (UniProt P98073)    Activity   20.8%
 8  N=C(NN)c1ccc(C(=O)Oc2ccc(CC(=O)O)n3ncnc23)cc1  Enteropeptidase (Homo sapiens) (UniProt P98073)    Activity    0.5%
 9  N=C(N)Nc1ccc(C(=O)Oc2ccc(C3OC(=O)NC3=O)n3ncnc23)cc1 (stereo unspecified)  Enteropeptidase (Homo sapiens) (UniProt P98073)    Activity     73%
10  N=C(N)Nc1ccc(C(=O)Oc2ccc(CC(=O)O)n3ncnc23)cc1  Enteropeptidase (Homo sapiens) (UniProt P98073)    Activity   97.8%

Turning to the following compound.
Sample `N=C(N)Nc1ccc(C(=O)Oc2ccc(CC(=O)NCC(=O)O)n3ncnc23)cc1` — what was its Activity?
48.1%
